- Tested on: SC-hCMs (stem cell cardiomyocytes)
- MEASUREMENT_PROTOCOL: Cardiomyocyte assay (CRL), iPSC cardiomyocytes
- Assay type: cell-based, human
- ASSAY_CONTEXT: 10 μM, 48 h
READOUT_NAME: Proarrhythmic Markers at 10 μM, 48 h

[
  {
    "MOLECULE": "Cc1ccc(C(=O)Nc2cn3c(n2)COCC3(C)C)cc1C#Cc1cccnc1 [Example 39]",
    "SYSTEM": "SC-hCMs (stem cell cardiomyocytes)",
    "OBSERVED": "Not Observed"
  },
  {
    "MOLECULE": "Cc1ccc(C(=O)Nc2cc3n(n2)CCCC3(F)F)cc1C#Cc1cccnc1 [Example 97]",
    "SYSTEM": "SC-hCMs (stem cell cardiomyocytes)",
    "OBSERVED": "Not Observed"
  }
]

====

Give IC50 for every item shown.
- SYSTEM: hERG ion channel (Homo sapiens)
- Sequence (Q12809 whole entry): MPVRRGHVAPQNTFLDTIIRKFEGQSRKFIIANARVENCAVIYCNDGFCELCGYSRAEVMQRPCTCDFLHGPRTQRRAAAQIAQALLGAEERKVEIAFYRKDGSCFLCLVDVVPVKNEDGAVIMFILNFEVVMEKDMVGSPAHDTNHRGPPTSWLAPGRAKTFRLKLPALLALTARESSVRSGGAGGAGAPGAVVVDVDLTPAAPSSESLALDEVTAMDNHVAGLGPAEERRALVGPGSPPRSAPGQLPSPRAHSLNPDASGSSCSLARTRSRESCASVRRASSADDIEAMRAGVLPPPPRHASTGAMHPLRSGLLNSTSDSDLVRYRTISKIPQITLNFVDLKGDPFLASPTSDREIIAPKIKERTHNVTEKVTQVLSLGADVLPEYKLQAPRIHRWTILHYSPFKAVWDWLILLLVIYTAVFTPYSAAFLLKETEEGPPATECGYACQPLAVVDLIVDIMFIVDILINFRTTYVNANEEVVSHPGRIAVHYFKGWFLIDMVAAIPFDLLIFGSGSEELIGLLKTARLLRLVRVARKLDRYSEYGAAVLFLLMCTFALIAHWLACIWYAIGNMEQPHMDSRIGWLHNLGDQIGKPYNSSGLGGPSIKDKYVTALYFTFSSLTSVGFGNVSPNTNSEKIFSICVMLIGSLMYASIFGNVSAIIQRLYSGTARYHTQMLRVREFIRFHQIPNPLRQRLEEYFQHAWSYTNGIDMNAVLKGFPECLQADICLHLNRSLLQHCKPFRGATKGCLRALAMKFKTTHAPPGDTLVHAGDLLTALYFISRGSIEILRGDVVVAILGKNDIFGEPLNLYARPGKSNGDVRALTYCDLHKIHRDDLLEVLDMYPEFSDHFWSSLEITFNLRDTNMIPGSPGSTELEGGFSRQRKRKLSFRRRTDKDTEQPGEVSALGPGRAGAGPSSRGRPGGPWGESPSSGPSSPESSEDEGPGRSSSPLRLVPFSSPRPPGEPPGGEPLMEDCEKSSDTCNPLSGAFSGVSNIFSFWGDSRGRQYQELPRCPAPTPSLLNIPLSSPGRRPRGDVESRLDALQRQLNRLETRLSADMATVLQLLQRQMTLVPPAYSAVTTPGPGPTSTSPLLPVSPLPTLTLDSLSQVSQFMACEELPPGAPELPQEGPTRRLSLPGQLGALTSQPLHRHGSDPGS
- MEASUREMENT_PROTOCOL: hERG QPatch automated patch clamp
- ASSAY_CONTEXT: CHO cells stably expressing hERG, QPatch 48, tail current

Q: Supply recorded IC50 for Cc1ccc(C(=O)Nc2cn3c(n2)COCC3(C)C)cc1C#Cc1cccnc1 [Example 39] here.
A: > 10 µM

Q: Supply recorded IC50 for Cc1ccc(C(=O)Nc2cn(C(C)C)cn2)cc1C#Cc1cccnc1 [Example 25] here.
A: > 10 µM

Q: Supply recorded IC50 for Cc1ccc(C(=O)Nc2cc3n(n2)CCCC3(F)F)cc1C#Cc1cccnc1 [Example 97] here.
A: > 10 µM

====

- Tested on: HUVEC
- MEASUREMENT_PROTOCOL: HUVEC Cell Viability (CV) assay
- Format: cell-based, human
- ASSAY_CONTEXT: Homo sapiens, alamarBlue
READOUT_NAME: IC50 (µM)
Provide the reading as a plain figure in µM.

Q: Enter IC50 (test system HUVEC) for Cc1ccc(C(=O)Nc2ccc(CN3CCN(C)CC3)c(C(F)(F)F)c2)cc1C#Cc1cnc2cccnn12 [Comparative Example 2, reference compound]
A: 0.32

Q: Enter IC50 (test system HUVEC) for Cc1cn(-c2cc(NC(=O)c3ccc(C)c(Nc4nccc(-c5cccnc5)n4)c3)cc(C(F)(F)F)c2)cn1 [Comparative Example 3, reference compound]
A: 3.6

Q: Enter IC50 (test system HUVEC) for Cc1ccc(C(=O)Nc2cc3n(n2)CCCC3(F)F)cc1C#Cc1cccnc1 [Example 97]
A: 3.6

Q: Enter IC50 (test system HUVEC) for Cc1ccc(C(=O)Nc2cn3c(n2)COCC3(C)C)cc1C#Cc1cccnc1 [Example 39]
A: 21

Q: Enter IC50 (test system HUVEC) for Cc1ccc(C(=O)Nc2cn(C(C)C)cn2)cc1C#Cc1cccnc1 [Example 25]
A: 45

====

- Tested on: SC-hCMs (stem cell cardiomyocytes)
- MEASUREMENT_PROTOCOL: Cardiomyocyte assay (CRL), iPSC cardiomyocytes
- Assay type: cell-based, human
- ASSAY_CONTEXT: 10 μM, 48 h, corrected by time matched controls
Give ΔΔ Na Spike Amp at 10 μM, 48 h (%) for every item shown.
Provide the reading as a plain figure in %.

Q: Enter ΔΔ Na Spike Amp at 10 μM, 48 h (%) (test system SC-hCMs (stem cell cardiomyocytes)) for `Cc1ccc(C(=O)Nc2cc3n(n2)CCCC3(F)F)cc1C#Cc1cccnc1`
A: 2.20

Q: Enter ΔΔ Na Spike Amp at 10 μM, 48 h (%) (test system SC-hCMs (stem cell cardiomyocytes)) for `Cc1ccc(C(=O)Nc2cn3c(n2)COCC3(C)C)cc1C#Cc1cccnc1`
A: −43.3

Q: Enter ΔΔ Na Spike Amp at 10 μM, 48 h (%) (test system SC-hCMs (stem cell cardiomyocytes)) for Cc1cn(-c2cc(NC(=O)c3ccc(C)c(Nc4nccc(-c5cccnc5)n4)c3)cc(C(F)(F)F)c2)cn1 [Comparative Example 3, reference compound]
A: −96.2
